Source of measurements: paper PMC2816707

molecular target: T1, Recombinant human VEGF165 (human, UniProt P15692-4, strain); experiment: ELISA; antigen binding ELISA with the antigen coated on a 96-well plate; paired H and L chains of the 15 antibodies; grades against background reading
T1 construct: also called human vascular endothelial growth factor-A; VEGF-A165; source: bought: Shanghai Primegene Bio-Tech Co. and R&D System
T1 sequence (P15692 whole entry, looked up, stated change not applied): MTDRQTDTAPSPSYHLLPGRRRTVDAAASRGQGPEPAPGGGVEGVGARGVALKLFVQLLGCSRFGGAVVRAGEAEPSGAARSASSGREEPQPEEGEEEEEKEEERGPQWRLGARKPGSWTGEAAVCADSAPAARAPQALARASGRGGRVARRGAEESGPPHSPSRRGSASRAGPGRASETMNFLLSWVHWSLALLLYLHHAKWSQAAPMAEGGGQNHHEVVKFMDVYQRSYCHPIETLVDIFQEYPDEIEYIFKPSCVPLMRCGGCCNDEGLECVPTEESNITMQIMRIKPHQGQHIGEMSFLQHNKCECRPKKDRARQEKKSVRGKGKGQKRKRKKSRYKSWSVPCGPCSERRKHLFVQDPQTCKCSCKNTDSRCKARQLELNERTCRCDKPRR

binder: heavy chain of EBV307 paired with light chain of EBV321 (antibody, V domains shown, also called 307H/321L) VH: QSVEESGGGLVKPGGTLTLTCTVSGFSFSNNDVMCWVRQAPGKGLEWIGCIMTTDVVTAYANWAKSRFTVSRTSSTTVTLQVTSLTVADTATYFCARDSVGSPLMSFDLWGPGTLVTVSS VL: LVMTQTPASVSAAVGGTVTINCQASQSVYGNNELSWYQQKPGQPPKLLIYRASTLASGVPSRFSGSGSGTQFTLTISGVQCADAATYYCGGYKSYSNDGNGFGGGTEVVVK
binding result: binds
--
binder: heavy chain of EBV321 paired with light chain of EBV302 (antibody, V domains shown) VH: QSLEESGGDLVKPGASLTLSCTASGFSFSNNDVMCWVRQAPGKGLEWIGCIMTTDVVTEYANWAKSRFTVSKTSSSTVTLQLTSLTVADTATYFCARDSVGSPLMSFDLWGPGTLVTVSS VL: LVMTQTPASVSAAVGGTVIINCQASQNLYNNNELSWYQQKPGQPPKLLIYWASTLASGVPSRFKGSGSGTQFTLTISGVQCADAATYYCAGYKSYSNGGNGFGGGTEVVVK
binding result: binds
--
binder: heavy chain of EBV320 paired with light chain of EBV307 (antibody, V domains shown, also called 320H/307L) VH: QSLEESGGDLVKPGASLTLTCTASGFSFSNNAVMCWVRQAPGKGLEWIGCIMTTDVVTEYANWAKSRFTVSKTSSTTVTLQMTSLTVADTATYFCARDSVGSPLMSFDLWGPGTLVTVSS VL: LVMTQTPASVSAAVGGTVTINCQASQSVYGNNELSWYQQKPGQRPKLLIYRASTLASGVPSRFSGSGSGTQFTLTISGVQCFDAATYYCSGYKSYYNDGSGFGGGTEVVVK
binding result: binds
